Target: equine FcRn complex (equine) (UniProt F6XZ61)
Sequence (chain, as listed by the source, chain 1 of 2): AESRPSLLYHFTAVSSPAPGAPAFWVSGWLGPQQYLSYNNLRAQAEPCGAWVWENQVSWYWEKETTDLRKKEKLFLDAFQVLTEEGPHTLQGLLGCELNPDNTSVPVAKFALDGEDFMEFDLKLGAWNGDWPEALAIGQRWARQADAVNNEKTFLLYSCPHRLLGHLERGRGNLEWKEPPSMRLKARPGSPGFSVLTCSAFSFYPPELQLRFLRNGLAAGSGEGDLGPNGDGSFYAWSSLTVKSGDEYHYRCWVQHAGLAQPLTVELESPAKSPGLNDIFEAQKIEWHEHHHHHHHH
Sequence (P30441 other isoform, or with tags, fused parts or gaps, chain 2 of 2): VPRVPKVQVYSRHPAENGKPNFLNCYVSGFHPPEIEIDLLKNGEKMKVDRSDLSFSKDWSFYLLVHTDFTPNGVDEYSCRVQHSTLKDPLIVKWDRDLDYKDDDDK
Assay: SPR (Biacore 8K+), pH 5.9, 25 C; FcRn captured by anti-His, IgG as analyte; 1:1 kinetic model
# pKd listing for each entry below
The scale used: pKd is minus the common logarithm of the concentration in molar units.

binder | experimental readout | assay value
Equine T286E (antibody, part only; not given: variable domains and light chain, IgG1, not shown: another chain or arm of the molecule) Fc: APELLGGPSVFIFPPNPKDTLMITRTPEVTCVVVDVSQENPDVKFNWYMDGVEVREATTRPKEEQFNSTYRVVSVLRIQHQDWLSGKEFKCKVNNQALPQPIERTITKTKGRSQEPQVYVLAPHPDELSKSKVSVTCLVKDFYPPEINIEWQSNGQPELETKYSTTQAQQDSDGSYFLYSKLSVDRNRWQQGTTFTCGVMHEALHNHYTQKNVSKNPGK | pKd | 7.32

Consider now this further binder.
Per the record, Equine Q309D (antibody, part only; not given: variable domains and light chain, IgG1, not shown: another chain or arm of the molecule) Fc: APELLGGPSVFIFPPNPKDTLMITRTPEVTCVVVDVSQENPDVKFNWYMDGVEVRTATTRPKEEQFNSTYRVVSVLRIDHQDWLSGKEFKCKVNNQALPQPIERTITKTKGRSQEPQVYVLAPHPDELSKSKVSVTCLVKDFYPPEINIEWQSNGQPELETKYSTTQAQQDSDGSYFLYSKLSVDRNRWQQGTTFTCGVMHEALHNHYTQKNVSKNPGK has pKd of 6.84
